Assay: Steady-state plasma concentrations of BUP and metabolites in pregnancy
Details: second trimester (T2), n=5; geometric mean [range]
Please respond with reported metabolite/BUP steady-state concentration ratio for every item in the list.

# get_value(readout='metabolite/BUP steady-state concentration ratio', item= CC(NC(C)(C)C)C(O)c1cccc(Cl)c1 (stereo not drawn) [Erythro, erythrohydrobupropion] ) 1.5 [0.4–4.2]

# get_value(readout='metabolite/BUP steady-state concentration ratio', item= C[C@H](NC(C)(C)C)[C@@H](O)c1cccc(Cl)c1 [Threo, threohydrobupropion] ) 10.3 [4.8–23.1]

# get_value(readout='metabolite/BUP steady-state concentration ratio', item= C[C@H]1NC(C)(C)CO[C@]1(O)c1cccc(Cl)c1 [R,R-OH-BUP] ) 43.8 [16.4–178.7]

# get_value(readout='metabolite/BUP steady-state concentration ratio', item= C[C@@H]1NC(C)(C)CO[C@@]1(O)c1cccc(Cl)c1 [S,S-OH-BUP] ) 2.2 [1.0–6.0]
